Origin of the recorded values: patent US11389415B2

- Test system: HEP3B
- experiment.notes: tumor cell growth (CTG), HEP3B
- run.conditions: read-out: IC50 (uM), HEP3B (Liver Cancer); 96 well CTG 1 day treatment
assay.metric: IC50 (µM)
Supply the numeric figure in µM, leaving out any unit text.

Ask: I'd like to know its IC50. The compound in question is COc1ccc(C[C@@H](C)NC[C@H](O)c2cc(O)cc(O)c2)c2ccccc12 [(R,R′)-MNF, (R,R′)-4′-methoxy-1-naphthylfenoterol]
Result: 28.3

----------
- Test system: HepG2 cells
- experiment.notes: [3H]-Thymidine incorporation assay in HepG2 cells
- Type: cell-based, human
- run.conditions: Homo sapiens; HepG2 cells, serum-free medium, 24 h; read-out: IC50/EC50 (μM): EC50 (ED50) for increase in [3H]-thymidine incorporation
assay.metric: EC50 (µM)
Supply the numeric figure in µM, leaving out any unit text.

Ask: I'd like to know its EC50. The compound in question is CC(C)NC[C@H](O)c1ccc(O)c(O)c1 [(R)-isoproterenol, reference compound]
Result: 0.4

----------
- Test system: HepG2 cells
- experiment.notes: [3H]-Thymidine incorporation assay in HepG2 cells
- Format: cell-based, human
- run.conditions: Homo sapiens, HepG2, read-out: IC50/EC50 (μM): EC50 (ED50) for increase in [3H]-thymidine incorporation
assay.metric: EC50
I'd appreciate it if you included the unit after the number.

Ask: Short answer please: EC50, HepG2 cells, entry C[C@H](Cc1ccc(O)cc1)NC[C@H](O)c1cc(O)cc(O)c1 [(R,R′)-Fen, (R,R′)-Fenoterol]
Result: 1.17 µM

----------
Measured IC50, listed per entry for reference.
- Tested on: PC3
- experiment.notes: [3H]-Thymidine incorporation in 96-well plates (Thy), PC3
- run.conditions: read-out: IC50 (uM), PC3 (Prostrate Cancer); 96 well Tye 1 day treatment

[[record]]
compound = "COc1ccc(C[C@@H](C)NC[C@H](O)c2cc(O)cc(O)c2)c2ccccc12 [(R,R′)-MNF, (R,R′)-4′-methoxy-1-naphthylfenoterol]"
result = "11 µM"


Ask: I'd like to know its IC50. The compound in question is COc1ccc(C[C@@H](C)NC[C@H](O)c2cc(O)cc(O)c2)cc1 [RR-MF, (R,R′)-4-methoxyfenoterol]
Result: > 50 µM

----------
- Tested on: LN229
- experiment.notes: [3H]-Thymidine incorporation in 96-well plates (Thy), LN229
- run.conditions: Homo sapiens, LN-229, 48 h, read-out: IC50 (uM), LN229 (CNS Cancer)
assay.metric: IC50 (µM)
Supply the numeric figure in µM, leaving out any unit text.

Ask: I'd like to know its IC50. The compound in question is COc1cccc2c1C(=O)c1c(O)c3c(c(O)c1C2=O)C[C@@](O)(C(=O)CO)C[C@@H]3O[C@H]1C[C@H](N)[C@H](O)[C@H](C)O1 [Doxorubicin, reference compound]
Result: 0.07

----------
- Test system: LN-229
- experiment.notes: tumor cell growth (CTG), LN-229 / LN229
- run.conditions: Homo sapiens, LN-229, 72 h, read-out: IC50 (uM), LN229 (CNS Cancer)
assay.metric: IC50

Ask: I'd like to know its IC50. The compound in question is COc1cccc2c1C(=O)c1c(O)c3c(c(O)c1C2=O)C[C@@](O)(C(=O)CO)C[C@@H]3O[C@H]1C[C@H](N)[C@H](O)[C@H](C)O1 [Doxorubicin, reference compound]
Result: 0.61 µM

----------
- System: NCIH460
- experiment.notes: Thymidine (Thy) 96 well, NCIH460
- run.conditions: Homo sapiens, NCI-H460, 24 h, read-out: IC50 (uM), NCIH460 (NSCLC)
assay.metric: IC50 (µM)
Supply the numeric figure in µM, leaving out any unit text.

Ask: Short answer please: IC50, NCIH460, entry COc1cccc2c1C(=O)c1c(O)c3c(c(O)c1C2=O)C[C@@](O)(C(=O)CO)C[C@@H]3O[C@H]1C[C@H](N)[C@H](O)[C@H](C)O1 [Doxorubicin, reference compound]
Result: 0.09

----------
- Test system: H460
- experiment.notes: tumor cell growth (CTG), H460 / NCIH460
- run.conditions: read-out: IC50 (uM), H460 (NSCLC); Table 6
assay.metric: IC50 (µM)
Supply the numeric figure in µM, leaving out any unit text.

Ask: Short answer please: IC50, H460, entry COc1ccc(C[C@@H](C)NC[C@H](O)c2cc(O)cc(O)c2)c2ccccc12 [(R,R′)-MNF, (R,R′)-4′-methoxy-1-naphthylfenoterol]
Result: 11.6

----------
- Tested on: Du-145
- experiment.notes: tumor cell growth, Du-145
- run.conditions: Homo sapiens, DU-145, read-out: IC50 (uM), Du-145 (Prostate C)
assay.metric: IC50 (µM)
Supply the numeric figure in µM, leaving out any unit text.

Ask: Short answer please: IC50, Du-145, entry COc1cccc2c1C(=O)c1c(O)c3c(c(O)c1C2=O)C[C@@](O)(C(=O)CO)C[C@@H]3O[C@H]1C[C@H](N)[C@H](O)[C@H](C)O1 [Doxorubicin, reference compound]
Result: 0.38

----------
- System: U251
- experiment.notes: tumor cell growth, U251
- run.conditions: Homo sapiens, U-251, read-out: IC50 (uM), U251 (CNS)
assay.metric: IC50 (µM)
Supply the numeric figure in µM, leaving out any unit text.

Ask: I'd like to know its IC50. The compound in question is COc1cccc2c1C(=O)c1c(O)c3c(c(O)c1C2=O)C[C@@](O)(C(=O)CO)C[C@@H]3O[C@H]1C[C@H](N)[C@H](O)[C@H](C)O1 [Doxorubicin, reference compound]
Result: 0.17

----------
- Tested on: HCT116
- experiment.notes: Thymidine (Thy) 96 well, HCT116
- run.conditions: Homo sapiens, HCT-116, 48 h, read-out: IC50 (uM), HCT116 (Colon Cancer)
assay.metric: IC50 (µM)
Supply the numeric figure in µM, leaving out any unit text.

Ask: I'd like to know its IC50. The molecule in question is COc1cccc2c1C(=O)c1c(O)c3c(c(O)c1C2=O)C[C@@](O)(C(=O)CO)C[C@@H]3O[C@H]1C[C@H](N)[C@H](O)[C@H](C)O1 [Doxorubicin, reference compound]
Result: 0.14
